test: Half life period in rabbit liver homogenate
Assay type: ADME, tissue-based, Oryctolagus cuniculus
reported metric: half-life (min)
Please give a number only; it is taken to be in min.

[
  {
    "compound": "CCN(CC)C(=O)C(C#N)=Cc1cc(O)c(O)c([N+](=O)[O-])c1",
    "half-life / min": 58
  }
]

For the next question, use this compound.
Prompt: Quick check: half-life of CCN(CC)C(=O)/C(C#N)=C/c1cc(O)c(O)c([N+](=O)[O-])c1 [ENTACAPONE] ?
Response: 58

* * *

test: Half life period t pH 7.4 at 37 degree Centigrade
Assay type: ADME
reported metric: half-life (days)
Could you give me the number in days? Just the number is fine.

Prompt: Recorded half-life of `CCN(CC)C(=O)/C(C#N)=C/c1cc(OP(=O)([O-])[O-])c([O-])c([N+](=O)[O-])c1.[Na+].[Na+].[Na+]` , please.
Response: 92.8

* * *

solubility values, listed per item
test: Solubility at pH 1.2
Format: physicochemical
condition info: buffer
Give just the number in mg/mL; leave the unit off.

[
  {
    "structure string": "CCN(CC)C(=O)/C(C#N)=C/c1cc(OP(=O)([O-])[O-])c([O-])c([N+](=O)[O-])c1.[Na+].[Na+].[Na+]",
    "solubility (mg/mL)": 30
  }
]

Prompt: Could you share which solubility value was measured for `CCN(CC)C(=O)/C(C#N)=C/c1cc(O)c(O)c([N+](=O)[O-])c1` ?
Response: 0.017
